- assay system: P2X7 receptor (Homo sapiens (Human), UniProt Q99572)
- Sequence (Q99572 whole entry): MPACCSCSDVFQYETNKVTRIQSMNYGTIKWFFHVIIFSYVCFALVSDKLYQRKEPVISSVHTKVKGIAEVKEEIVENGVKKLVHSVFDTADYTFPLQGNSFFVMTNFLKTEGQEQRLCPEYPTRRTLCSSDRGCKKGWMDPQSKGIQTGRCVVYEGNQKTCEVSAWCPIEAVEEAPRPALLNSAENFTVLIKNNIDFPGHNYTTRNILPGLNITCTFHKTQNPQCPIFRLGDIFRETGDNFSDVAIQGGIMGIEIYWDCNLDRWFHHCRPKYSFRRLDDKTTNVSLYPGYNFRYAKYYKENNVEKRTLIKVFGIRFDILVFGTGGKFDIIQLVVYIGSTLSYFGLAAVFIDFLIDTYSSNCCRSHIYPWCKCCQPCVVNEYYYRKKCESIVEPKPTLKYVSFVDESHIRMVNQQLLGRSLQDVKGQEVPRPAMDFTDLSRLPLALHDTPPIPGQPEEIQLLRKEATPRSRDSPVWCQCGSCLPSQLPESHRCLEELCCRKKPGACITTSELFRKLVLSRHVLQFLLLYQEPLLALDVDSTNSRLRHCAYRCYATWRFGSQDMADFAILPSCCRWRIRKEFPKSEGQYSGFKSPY
- protocol: P2X7 FLIPR assay: antagonism of BzATP response in 293 HEK cells stably expressing P2X7 receptor
- measurement conditions: FLIPR fluorescence (Fluo-4), agonist BzATP, 293 HEK cells stably transfected with P2X7 receptor
Please note: IC50 exactly at 2 nM is Condition not met. Only values below 2 nM get Condition met.

COc1cccc(C(=O)NCC(c2ccc(C(F)F)nc2)N2CCC(F)(F)CC2)c1Cl (single isomer, unassigned; (+)) [(+)2-chloro-N-[2-[6-(difluoromethyl)-3-pyridyl]-2-(4,4-diflu]	Condition not met

[ask] In plain terms, does Cc1ncc(C(CNC(=O)c2cccc(F)c2Cl)N2CCC(F)(F)CC2)cn1 (single isomer, unassigned; (+)) [(+)2-chloro-N-[2-(4,4-difluoro-1-piperidyl)-2-(2-methylpyrim] come in under 2 nM for IC50?
[reply] Condition not met

[ask] Is IC50 strictly under 2 nM for the entry O=C(NCC(c1ccc(Cl)cc1)N1CCOCC1)c1cccc(Cl)c1Cl (centres unmarked) ?
[reply] Condition met

[ask] Take the compound O=C(NCC(c1cnc(C(F)(F)F)nc1)N1CCC(F)(F)CC1)c1cc(F)cc(Cl)c1Cl (single isomer, unassigned; (+)) [(+)2,3-dichloro-N-[2-(4,4-difluoro-1-piperidyl)-2-[2-(triflu] and say whether its IC50 is less than 2 nM.
[reply] Condition not met

[ask] Answer whether the compound CS(=O)(=O)c1ccc(Cl)c(C(=O)NCC(c2ccc(C(F)(F)F)nc2)N2CCOCC2)c1 (single isomer, unassigned; (-)) [(−)2-chloro-5-methylsulfonyl-N-[2-morpholino-2-[6-(trifluoro] has IC50 strictly less than 2 nM
[reply] Condition not met

###

- assay system: P2X7 receptor (Homo sapiens (Human))
- protocol: P2X7 FLIPR assay: antagonism of BzATP response in 293 HEK cells stably expressing P2X7 receptor
- Type: cell-based
- measurement conditions: FLIPR fluorescence (Fluo-4), agonist BzATP, 293 HEK cells stably transfected with P2X7 receptor
- Description: Cells were plated to cell density of approximately 15,000 cells/well in 384-well assay plates (50 μl/well) with 1.5% low serum media (DMEM, 1.5% BCS, 1% L-glut (2 mM), 1% P/S). […] Compound mixtures (A) were added to assay plates containing cells and placed at room temperature for 30 minutes, then BzATP (B) was added. Fluorescence was read using the Tetra FLIPR® (Molecular Devices, Inc., Sunnyvale, Calif., USA) and IC50 values were calculated by standard methods to determine antagonist activity.
Provide the recorded pIC50 for the entries that follow.
Give bare numbers, as −log10 of the molar value.

Cc1ncc(C(CNC(=O)c2ccccc2Cl)N2CCOCC2)cn1 (single isomer, unassigned; (+)) [(+)2-chloro-N-[2-(2-methylpyrimidin-5-yl)-2-morpholino-ethyl]	6.20
O=C(NCC(c1ccc(C(F)(F)F)nc1)N1CCOCC1)c1c(F)cccc1F (single isomer, unassigned; (+)) [(+)2,6-difluoro-N-[2-morpholino-2-[6-(trifluoromethyl)-3-pyr]	7.54

Next item in the queue.
[ask] Consider the compound Cc1ncc(C(CNC(=O)c2cccc(Cl)c2Cl)N2CCCC(C)C2)cn1 (stereo not drawn) and give its measured pIC50.
[reply] 6.77

###

- assay system: P2X7 receptor (Homo sapiens (Human))
- protocol: P2X7 FLIPR assay: antagonism of BzATP response in 293 HEK cells stably expressing P2X7 receptor
- measurement conditions: FLIPR fluorescence (Fluo-4), agonist BzATP, 293 HEK cells stably transfected with P2X7 receptor
reported endpoint: IC50
Answer format: number, then unit.

Would you please look over these solved cases?
Cc1ncc(C(CNC(=O)c2c(F)cccc2Cl)N2CCCC(F)(F)C2)cn1 (single isomer, unassigned; (+)) [(+)2-chloro-N-[2-(3,3-difluoro-1-piperidyl)-2-(2-methylpyrim]	53 nM
Cc1ncc(C(CNC(=O)c2cccc(Cl)c2Cl)N2CCC(F)CC2)cn1 (single isomer, unassigned; (-)) [(−)2,3-dichloro-N-[2-(4-fluoro-1-piperidyl)-2-(2-methylpyrim]	14 nM
O=C(NCC(c1cnc(C2CC2)nc1)N1CCC(F)(F)CC1)c1ccccc1Cl (single isomer, unassigned; (-)) [(−)2-chloro-N-[2-(2-cyclopropylpyrimidin-5-yl)-2-(4,4-difluo]	7.6 nM

Would you mind giving IC50 for every compound in the list below?
1. CS(=O)(=O)c1ccc(Cl)c(C(=O)NCC(c2ccc(C(F)(F)F)nc2)N2CCOCC2)c1 (single isomer, unassigned; (+)) [(+)2-chloro-5-methylsulfonyl-N-[2-morpholino-2-[6-(trifluoro]
2. O=C(NCC(c1cnc(C(F)(F)F)nc1)N1CCC(F)(F)CC1)c1ccc(Cl)cc1Cl (single isomer, unassigned; (+)) [(+)2,4-dichloro-N-[2-(4,4-difluoro-1-piperidyl)-2-[2-(triflu]
3. O=C(NCC(c1ccc(C(F)F)nc1)N1CCC(F)(F)CC1)c1c(Cl)cccc1Cl (single isomer, unassigned; (+)) [(+)2,6-dichloro-N-[2-[6-(difluoromethyl)-3-pyridyl]-2-(4,4-d]
4. Cc1cccc(C(=O)NCC(c2ccc(F)cc2)N2CCOCC2)c1C (centres unmarked)
5. O=C(NCC(c1ccc(C(F)(F)F)nc1)N1CCC(F)(F)CC1)c1c(F)cccc1Cl (single isomer, unassigned; (+))
6. CC1(C)CCN(C(CNC(=O)c2cccc(F)c2Cl)c2cnc(C(F)(F)F)nc2)CC1 (centres unmarked)
7. O=C(NCC(c1cnc(C(F)(F)F)nc1)N1CCOCC1)c1ccccc1F (single isomer, unassigned; (-))
8. O=C(NCC(c1cnc(C2CC2)nc1)N1CCC(F)(F)CC1)c1cccc(Cl)c1Cl (single isomer, unassigned; (+)) [(+)2,3-dichloro-N-[2-(2-cyclopropylpyrimidin-5-yl)-2-(4,4-di]

[reply]
["71 nM", "5.6 nM", "8.7 nM", "20 nM", "0.62 nM", "3600 nM", "44 nM", "4.3 nM"]
